Data provenance: patent US4130637A

System: Ps. aeruginosa
Experiment: Minimum inhibitory concentration, test tube serial dilution test
Type: cell-based
Settings: Pseudomonas aeruginosa, Gram Negative
assay-readout: MIC (µg/mL)
A number alone suffices; assume µg/mL.

Below: 4 molecules and their reported MIC.
CCCCCCCCCCCCCC[N+](C)(C)CCCCCCCCCCC(=O)O.[Br-] [C14 H29 [RN^+ (CH3)2 (CH2)10 COOH] Pr^-]
50
CCCCCCCCCCCCCCCC[N+](C)(C)CCCCCCCCCCC(=O)[O-]
100
CCCCCCCCCCCCCCCC[N+](C)(C)CCCCCCCCCCC(=O)O.[Br-] [C16 H33 [RN^+ (CH3)2 (CH2)10 COOH] Pr^-]
50
CCCCCCCCCCCC[N+](C)(C)CCCCCCCCCCC(=O)O [C12 H25 [RN^+ (CH3)2 (CH2)10 COOH] Pr^-]
50

Now examine the next entry.
q: Which measured MIC value corresponds to CCCCCCCCCCCCCC[N+](C)(C)CCCCCCCCCCC(=O)[O-] ?
a: 100
